Cited source for all entries: patent US11878975B2

Target: human TLR9 (Homo sapiens, UniProt Q9NR96)
Sequence (Q9NR96 26-1032): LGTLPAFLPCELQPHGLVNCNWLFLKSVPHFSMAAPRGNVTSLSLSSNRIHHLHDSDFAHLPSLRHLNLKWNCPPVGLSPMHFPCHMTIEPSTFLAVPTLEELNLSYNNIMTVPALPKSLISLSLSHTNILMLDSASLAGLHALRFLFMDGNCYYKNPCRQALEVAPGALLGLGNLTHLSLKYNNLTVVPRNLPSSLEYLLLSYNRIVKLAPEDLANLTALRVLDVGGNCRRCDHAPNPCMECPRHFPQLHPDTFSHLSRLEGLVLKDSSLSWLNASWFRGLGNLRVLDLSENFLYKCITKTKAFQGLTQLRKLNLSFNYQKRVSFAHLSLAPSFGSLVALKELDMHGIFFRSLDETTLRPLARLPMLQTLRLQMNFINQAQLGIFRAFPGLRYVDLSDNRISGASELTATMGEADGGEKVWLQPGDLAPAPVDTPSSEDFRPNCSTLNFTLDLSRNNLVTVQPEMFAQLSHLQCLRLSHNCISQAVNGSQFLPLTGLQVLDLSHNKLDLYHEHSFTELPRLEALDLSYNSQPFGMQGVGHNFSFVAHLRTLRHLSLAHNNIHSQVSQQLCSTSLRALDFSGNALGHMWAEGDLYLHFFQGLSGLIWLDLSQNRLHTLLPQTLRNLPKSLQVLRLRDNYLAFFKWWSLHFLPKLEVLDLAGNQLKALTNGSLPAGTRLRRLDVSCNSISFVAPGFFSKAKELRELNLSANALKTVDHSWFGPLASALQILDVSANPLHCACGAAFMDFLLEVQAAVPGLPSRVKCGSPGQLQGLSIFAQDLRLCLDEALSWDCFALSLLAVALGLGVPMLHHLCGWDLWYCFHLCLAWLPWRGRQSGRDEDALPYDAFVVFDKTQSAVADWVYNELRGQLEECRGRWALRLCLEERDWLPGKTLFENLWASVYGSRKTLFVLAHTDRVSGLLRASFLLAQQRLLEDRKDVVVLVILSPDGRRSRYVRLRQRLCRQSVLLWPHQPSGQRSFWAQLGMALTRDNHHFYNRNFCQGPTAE
Assay: TLR9 inhibition reporter assay (HEK-Blue cells, SEAP reporter, ODN2006 stimulation)
Conditions: HEK-Blue cells overexpressing human TLR9, SEAP reporter, ODN2006 5 nM
From the text: TLR7/8/9 Inhibition Reporter Assays HEK-Blue™-cells (Invivogen) overexpressing human TLR7, TLR8 or TLR9 receptors were used for screening inhibitors of these receptors using an inducible SEAP (secreted embryonic alkaline phosphatase) reporter gene under the control of the IFN-β minimal promoter fused to five NF-κB and AP-1-binding sites. […]
experimental-readout: IC50

compound	IC50
CC(C)c1c(-c2ccnc3[nH]ncc23)[nH]c2ccc(CCC3CCNCC3)cc12	1.1 µM
Cc1cc(-c2[nH]c3ccc(C4CCC(N5CCCC(F)(F)C5)CC4)cc3c2C(C)C)cn(C)c1=O (stereo not shown) [Example 468]	> 50 µM
Cc1cc(-c2[nH]c3ccc([C@H]4C[C@H]4C(=O)NC4CCNCC4)cc3c2C(C)C)ccn1	0.224 µM

Req: Entry Cc1c(-c2[nH]c3ccc(CC4CCCN4C4COC4)cc3c2C(C)C)cn2cnnc2c1C (stereo not shown) : reported IC50 = ?
Resp: 17.6 µM

* * *

biological target: human TLR9 (Homo sapiens, UniProt Q9NR96); assay: TLR9 inhibition reporter assay (HEK-Blue cells, SEAP reporter, ODN2006 stimulation); conditions: HEK-Blue cells overexpressing human TLR9, SEAP reporter, ODN2006 5 nM
Catalogue of compounds with associated pIC50
// pIC50 is dimensionless: -log10 of concentration (M)

Some entries whose results are on file:
compound	tested-system	data-value
Cc1cc(-c2[nH]c3ccc([C@@H]4C[C@H]4C(=O)NC4CCN(C(C)C)CC4)cc3c2C(C)C)ccn1 [Example 458]	human TLR9 (Homo sapiens, UniProt Q9NR96)	5.64
Cc1cc(-c2[nH]c3ccc([C@H]4C[C@H]4C(=O)NC4CCC5CNCC54)cc3c2C(C)C)ccn1 (stereo partly shown) [Example 457]	human TLR9 (Homo sapiens, UniProt Q9NR96)	6.19
Cc1c(-c2[nH]c3ccc(C4CCC(NC(=O)CN(C)C)CC4)cc3c2C(C)C)cn2ncnc2c1C (stereo not shown) [Example 124]	human TLR9 (Homo sapiens, UniProt Q9NR96)	5.09
Cc1c(-c2[nH]c3ccc(C4CC(NC(=O)CN(C)C)C4)cc3c2C(C)C)cn(C)c(=O)c1C (stereo not shown) [Example 490]	human TLR9 (Homo sapiens, UniProt Q9NR96)	4.87
CCc1c(-c2ccc(OC)c(OC)c2)[nH]c2ccc(CC3CCCN3)cc12 (stereo not shown) [Example 419]	human TLR9 (Homo sapiens, UniProt Q9NR96)	5.43
COc1cc(-c2[nH]c3ccc(CCC4CN(C(=O)CN(C)C)C4)cc3c2C(C)C)cn2ncnc12 [Example 439]	human TLR9 (Homo sapiens, UniProt Q9NR96)	5.65
COc1cc(-c2[nH]c3ccc(C4CN(C(=O)CN(C)C)CCO4)cc3c2C(C)C)cn2ncnc12 (stereo not shown) [Example 332]	human TLR9 (Homo sapiens, UniProt Q9NR96)	5.55
Cc1cc(-c2[nH]c3ccc(C4CCC(N5CCOCC5)CC4)cc3c2C(C)C)cn2ncnc12 (stereo not shown) [Example 103]	human TLR9 (Homo sapiens, UniProt Q9NR96)	5.39
Cc1c(-c2[nH]c3ccc(C4CN(C(=O)CN(C)C)CCO4)cc3c2C(C)C)cn2ncnc2c1C (stereo not shown) [Example 330]	human TLR9 (Homo sapiens, UniProt Q9NR96)	5.48
COc1ccc(-c2[nH]c3ccc(C4CCC(N)CC4)cc3c2C(C)C)cc1OC (stereo not shown) [Example 450]	human TLR9 (Homo sapiens, UniProt Q9NR96)	5.66

Req: Any idea what its pIC50 is? The compound is Cc1cc(-c2[nH]c3ccc(C4CN(CCS(C)(=O)=O)C(C)(C)CO4)cc3c2C(C)C)cn2ncnc12 (stereo not shown) [Example 384]
Resp: 4.52
